Where these numbers come from: patent US20160002204A1

compounds and their reported IC50
molecular target: GLS1 (purified recombinant human GAC) (Homo sapiens); experiment: GLS1 enzymatic activity assay (dual-coupled, Amplex UltraRed/resorufin)

A selection of reference data follows.
CC(C)(C)COC(=O)Nc1ccn(CCC(F)Cn2cc(C(=O)NCc3cccc(OC(F)(F)F)c3)nn2)c(=O)n1 (centres unmarked) [Example 493]    < 100 nM
O=C(NCc1ccc(C(F)(F)F)nc1)c1cn(CC(F)CCn2ccc(NC(=O)C3CCCC3)c(F)c2=O)nn1 (centres unmarked) [Example 370]    100 to 500 nM
Cc1ccc(CNC(=O)c2cn(CC(F)CCn3ccc(NC(=O)CC4CCSCC4)cc3=O)nn2)cn1 (centres unmarked) [Example 198]    < 100 nM
O=C(Nc1ccn(CCCCn2cc(C(=O)NCc3cccc(OC(F)(F)F)c3)nn2)c(=O)c1)OC1CCC(F)(F)CC1 [Example 174]    < 100 nM
O=C(Cc1cccc(OC(F)(F)F)c1)Nc1ccc(CCCCn2ccc(NC(=O)CCO)nc2=O)nn1 [Example 117]    < 100 nM

Given the compound O=C(NCc1cncc(C(F)(F)F)c1)c1cn(CC(F)CCn2ccc(NC(=O)C(F)c3ccccc3)c(F)c2=O)nn1 (centres unmarked) [Example 362] and test system GLS1 (purified recombinant human GAC) (Homo sapiens), the measured IC50 is < 100 nM

Given the compound Nc1ccn(CCC(F)Cn2cc(C(=O)NCc3cc(C(F)(F)F)ccn3)nn2)c(=O)c1F (centres unmarked) [Example 322] and test system GLS1 (purified recombinant human GAC) (Homo sapiens), the measured IC50 is > 5000 nM

Given the compound Cc1ccc(CNC(=O)c2cn(CC(F)CCn3ccc(NC(=O)CC4CCOCC4)cc3=O)nn2)cn1 (centres unmarked) [Example 197] and test system GLS1 (purified recombinant human GAC) (Homo sapiens), the measured IC50 is < 100 nM

---

Biological target: GLS1 (purified recombinant human GAC) (Homo sapiens)
Sequence (O94925 55-598 isoform O94925-3 limits assumed): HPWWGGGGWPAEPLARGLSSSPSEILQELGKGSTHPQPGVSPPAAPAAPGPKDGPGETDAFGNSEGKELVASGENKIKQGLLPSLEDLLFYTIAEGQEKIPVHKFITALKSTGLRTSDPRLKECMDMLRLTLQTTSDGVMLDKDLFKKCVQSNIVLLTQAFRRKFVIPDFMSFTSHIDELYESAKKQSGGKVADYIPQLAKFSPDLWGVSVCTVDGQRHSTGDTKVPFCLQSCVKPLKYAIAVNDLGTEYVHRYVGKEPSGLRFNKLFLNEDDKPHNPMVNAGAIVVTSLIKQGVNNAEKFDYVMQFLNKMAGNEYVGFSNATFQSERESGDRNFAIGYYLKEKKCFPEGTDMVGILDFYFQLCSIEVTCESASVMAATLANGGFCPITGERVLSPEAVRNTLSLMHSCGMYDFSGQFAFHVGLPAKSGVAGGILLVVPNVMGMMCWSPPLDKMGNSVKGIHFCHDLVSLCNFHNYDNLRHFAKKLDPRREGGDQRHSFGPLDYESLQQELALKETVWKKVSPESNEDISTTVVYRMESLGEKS
Assay: GLS1 enzymatic activity assay (dual-coupled, Amplex UltraRed/resorufin)
pIC50: −log10 of the molar value.
Metric: pIC50

A selection of reference data follows.
O=C(Cc1ccccn1)Nc1ccn(CCCCc2nnc(C(=O)NCc3cc(OC(F)(F)F)ccc3F)s2)c(=O)c1    > 7.00
Nc1nnc(CCCCn2ccc(NC(=O)Cc3cccc(OC(F)(F)F)c3)nc2=O)s1    5.30 to 6.30
O=C(Cc1ccc2ccccc2n1)Nc1ccn(CCC(F)Cn2cc(C(=O)NCc3cccc(OC(F)(F)F)c3)nn2)c(=O)c1 (stereo not shown)    > 7.00

O=C(Cc1cccc(OC(F)(F)F)c1)Nc1ccc(CCCCn2ccc(NC(=O)[C@@H](O)c3ccccc3)nc2=O)nn1 yielded pIC50 of > 7.00

CC(=O)Nc1ccn(CCCCc2ccc(NC(=O)Cc3cccc(OC(F)(F)F)c3)nn2)c(=O)n1 yielded pIC50 of > 7.00

C[C@@H](NC(=O)c1ccn(CCCCn2cc(C(=O)NCc3cccc(OC(F)(F)F)c3)nn2)c(=O)c1)C(N)=O yielded pIC50 of 5.30 to 6.30

O=C(NCc1cc(C(F)(F)F)ccn1)c1cn(CC(F)CCn2ccc(COc3ccc(Cl)cc3)cc2=O)nn1 (stereo not shown) yielded pIC50 of > 7.00

---

compounds and their reported IC50
Molecular target: GLS1 (purified recombinant human GAC) (Homo sapiens, UniProt O94925)
Sequence (O94925 55-598 isoform O94925-3 limits assumed): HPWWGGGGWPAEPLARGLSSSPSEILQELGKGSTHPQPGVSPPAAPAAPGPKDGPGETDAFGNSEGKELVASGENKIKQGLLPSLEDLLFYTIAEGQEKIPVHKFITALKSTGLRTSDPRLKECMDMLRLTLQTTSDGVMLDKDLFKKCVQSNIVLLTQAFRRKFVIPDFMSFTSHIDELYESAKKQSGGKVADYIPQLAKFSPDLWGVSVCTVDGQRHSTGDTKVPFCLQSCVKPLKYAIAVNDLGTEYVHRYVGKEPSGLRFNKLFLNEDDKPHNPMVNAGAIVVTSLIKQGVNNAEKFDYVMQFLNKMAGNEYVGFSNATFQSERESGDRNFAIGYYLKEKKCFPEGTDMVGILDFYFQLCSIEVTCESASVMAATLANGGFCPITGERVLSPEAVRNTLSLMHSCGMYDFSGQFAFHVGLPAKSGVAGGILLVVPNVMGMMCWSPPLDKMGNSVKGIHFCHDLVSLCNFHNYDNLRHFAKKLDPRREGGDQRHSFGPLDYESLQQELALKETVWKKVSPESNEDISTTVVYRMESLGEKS
Assay: GLS1 enzymatic activity assay (dual-coupled, Amplex UltraRed/resorufin)
Type: biochemical

A selection of reference data follows.
O=C(NCc1cccc(OC(F)(F)F)c1)c1cn(CC(F)CCn2ccc(NC(=O)C3CCCCC3)c(F)c2=O)nn1 (stereo not shown) [Example 341]    < 100 nM
O=C(Cc1ccccc1)Nc1ccn(CCC(F)Cn2cc(C(=O)NCc3ncccc3F)nn2)c(=O)c1F (stereo not shown) [Example 373]    100 to 500 nM
CC(C)CNC(=O)Nc1nnc(CCCCn2ccc(NC(=O)CC3CCCC3)c(F)c2=O)s1 [Example 128]    100 to 500 nM
N#Cc1ccc(CNC(=O)c2cn(CC(F)CCn3ccc(NC(=O)Cc4ccccc4)c(F)c3=O)nn2)cn1 (stereo not shown) [Example 380]    100 to 500 nM
O=C(CC1CCCCC1)Nc1ccn(CCC(F)Cn2cc(C(=O)NCc3cccc(C(F)(F)F)n3)nn2)c(=O)c1F (stereo not shown) [Example 262]    < 100 nM

CO[C@@H](C(=O)Nc1ccn(CCC(F)Cn2cc(C(=O)NCc3cccc(OC(F)(F)F)c3)nn2)c(=O)c1)c1ccccc1 (stereo partly shown) [Example 186] yielded IC50 of < 100 nM

O=C(NCc1cccc(OC(F)(F)F)c1)c1cn(CC(F)CCn2ccc(COc3c(F)cccc3F)cc2=O)nn1 (stereo not shown) [Example 474] yielded IC50 of < 100 nM

---

Target: GLS1 (purified recombinant human GAC) (Homo sapiens, UniProt O94925)
Sequence (O94925 55-598 isoform O94925-3 limits assumed): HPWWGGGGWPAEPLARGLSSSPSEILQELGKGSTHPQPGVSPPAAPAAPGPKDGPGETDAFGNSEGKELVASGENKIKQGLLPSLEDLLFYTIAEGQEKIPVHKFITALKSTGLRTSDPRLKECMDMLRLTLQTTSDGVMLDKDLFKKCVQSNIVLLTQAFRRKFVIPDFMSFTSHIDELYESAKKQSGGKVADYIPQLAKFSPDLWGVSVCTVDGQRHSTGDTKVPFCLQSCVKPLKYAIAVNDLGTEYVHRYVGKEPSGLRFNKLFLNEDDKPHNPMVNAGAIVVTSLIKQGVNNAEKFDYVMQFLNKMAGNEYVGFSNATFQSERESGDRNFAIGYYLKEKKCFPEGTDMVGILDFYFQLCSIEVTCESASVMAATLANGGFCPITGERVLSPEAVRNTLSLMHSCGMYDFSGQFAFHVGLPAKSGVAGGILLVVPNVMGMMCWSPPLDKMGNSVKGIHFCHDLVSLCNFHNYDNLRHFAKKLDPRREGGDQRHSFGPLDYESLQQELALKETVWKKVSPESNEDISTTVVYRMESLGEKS
Test: GLS1 enzymatic activity assay (dual-coupled, Amplex UltraRed/resorufin)
Metric: IC50

A selection of reference data follows.
O=C(CC1CCCC1)Nc1ccn(CCC(F)Cn2cc(C(=O)NCc3ccc(OC(F)(F)F)cn3)nn2)c(=O)c1F (stereo not shown) [Example 400]    < 100 nM
O=C(Cc1cccc(OC(F)(F)F)c1)Nc1ccn(CCCCn2cc(C(=O)NCc3ccccn3)nn2)c(=O)c1 [Example 10]    < 100 nM
Cc1ccc(CNC(=O)c2cn(CC(F)CCn3ccc(NC(=O)OC(C)(C)C)c(F)c3=O)nn2)cn1 (stereo not shown) [Example 298]    100 to 500 nM
O=C(NCc1cccc(OC(F)(F)F)c1)c1cn(CC(F)CCn2ccc(COc3ccc(F)cc3F)cc2=O)nn1 (stereo not shown) [Example 478]    < 100 nM
CC(C)CS(=O)(=O)Nc1ccn(CCCCc2ccc(NC(=O)Cc3ccccc3)nn2)c(=O)n1 [Example 26]    500 to 5000 nM
Cc1ccc(CNC(=O)c2cn(CC(F)CCn3ncc(NC(=O)CC4CCC4)cc3=O)nn2)cn1 (stereo not shown) [Example 402]    100 to 500 nM

CS(=O)(=O)N1CCN(CC(=O)Nc2ccn(CCC(F)Cn3cc(C(=O)NCc4cccc(OC(F)(F)F)c4)nn3)c(=O)c2)CC1 (stereo not shown) [Example 279] yielded IC50 of < 100 nM
